# Assay target: AMPA receptor
# Experiment: [3H]CNQX binding test (AMPA-receptor binding)
# Design: species or system rat
# Protocol conditions: Table 2 parent compounds; rat; read-out: [3H]CNQX IC50 AMPA receptor binding, rat
pIC50: −log10 of the molar value.
Returns one of Condition met or Condition not met; Condition met when pIC50 is >= 7.

>  <Molecule>
CS(=O)(=O)Nn1c(=O)[nH]c2cc(C(F)(F)F)c(-n3ccnc3)cc2c1=O [Example 4.0]

>  <Label>
Condition met

$$$$

Query block: Form field: pIC50 at least 7? Entry: CS(=O)(=O)Nn1c(=O)[nH]c2cc(C(F)(F)F)c(-n3cnnc3)cc2c1=O [Example 9.0]
Result block: Condition met

Query block: Form field: pIC50 at least 7? Entry: CCc1cc2[nH]c(=O)n(NS(C)(=O)=O)c(=O)c2cc1-c1ccnn1C [Example 2.0]
Result block: Condition not met

Query block: Form field: pIC50 at least 7? Entry: CCc1cc2[nH]c(=O)n(NS(C)(=O)=O)c(=O)c2cc1-c1ccnn1CC [Example 13.0]
Result block: Condition not met

Query block: Form field: pIC50 at least 7? Entry: Cn1nccc1-c1cc2c(=O)n(NS(C)(=O)=O)c(=O)[nH]c2cc1C(F)(F)F [Example 1.0]
Result block: Condition not met

###

# Assay target: AMPA receptor
# Experiment: [3H]CNQX binding test (AMPA-receptor binding)
# Design: species or system rat
# Protocol conditions: Table 1A parent compounds; AMPA-receptor binding as described for Table 2; read-out: IC50
Readout name: IC50 (nM)
Just the number in nM, nothing appended.

Worked cases, IC50 given:
>  <Molecule>
CC(C)c1cc2[nH]c(=O)n(NS(C)(=O)=O)c(=O)c2cc1-c1ccnn1C(C)C

>  <Units label>
nM

>  <IC50>
430

$$$$
>  <Molecule>
COC(C)c1cc2c(=O)n(NS(C)(=O)=O)c(=O)[nH]c2cc1C(F)(F)F (centres unmarked)

>  <Units label>
nM

>  <IC50>
390

$$$$
>  <Molecule>
CCCOC(C)c1cc2c(=O)n(NS(C)(=O)=O)c(=O)[nH]c2cc1C(F)(F)F (centres unmarked)

>  <Units label>
nM

>  <IC50>
980

$$$$
>  <Molecule>
Cn1nccc1-c1cc2c(=O)n(NS(C)(=O)=O)c(=O)[nH]c2cc1C(F)F

>  <Units label>
nM

>  <IC50>
260

$$$$
>  <Molecule>
CS(=O)(=O)Nn1c(=O)[nH]c2cc(C(F)(F)F)c([C@H]3CO[C@@H](CO)C3)cc2c1=O

>  <Units label>
nM

>  <IC50>
370

$$$$

Query block: Return the recorded IC50 value; entry: CCCCOC(C)c1cc2c(=O)n(NS(C)(=O)=O)c(=O)[nH]c2cc1C(F)(F)F (centres unmarked)
Result block: 760

Query block: Return the recorded IC50 value; entry: "CC(C)n1nccc1-c1cc2c(=O)n(NS(C)(=O)=O)c(=O)[nH]c2cc1C(C)(F)F"
Result block: 210

Query block: Return the recorded IC50 value; entry: CCOC(C)c1cc2c(=O)n(NS(C)(=O)=O)c(=O)[nH]c2cc1C(F)F (centres unmarked)
Result block: 900

###

Reported values of responders at 50 mg/kg for individual entries
# System: OF1 mice
# Experiment: Maximal electroshock test (MES Test)
# Type: in vivo
# Protocol conditions: Mus musculus, po; 50 mg/kg, p.o., pre-treatment time −1 h; read-out: %-Protection

>  <Compound>
CC(C)c1cc2[nH]c(=O)n(N(C(=O)CCCN3CCOCC3)S(C)(=O)=O)c(=O)c2cc1-c1ccnn1C [Example 3.37]

>  <Assay target>
OF1 mice

>  <responders at 50 mg/kg>
100%

$$$$
>  <Compound>
CCC(O)c1cc2c(=O)n(N(C(=O)C(C)C)S(C)(=O)=O)c(=O)[nH]c2cc1C(F)(F)F (stereo not shown) [Example 12.04]

>  <Assay target>
OF1 mice

>  <responders at 50 mg/kg>
40%

$$$$
>  <Compound>
Cc1nccn1-c1cc2c(=O)n(N(C(=O)OCC(C)C)S(C)(=O)=O)c(=O)[nH]c2cc1C(F)(F)F [Example 7.04]

>  <Assay target>
OF1 mice

>  <responders at 50 mg/kg>
40%

$$$$

Query block: Return the recorded responders at 50 mg/kg value; entry: CC(=O)N(n1c(=O)c2cc(-c3ccnn3C)c(C(C)C)cc2n(C(C)=O)c1=O)S(C)(=O)=O [Example 3.24]
Result block: 100%
